Cited source for all entries: PubChem BioAssay (NCI)

Assay info: NCI Yeast Anticancer Drug Screen. Data for the rad50 strain (AID 155);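 also: 0% = growth of vehicle-only cultures of the same strain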
Details: S. cerevisiae rad50 strain growth inhibition; at 50.0 µM; hits give high values
Compounds without any hit were thinned out: in the full panel of roughly 79,000, 15% have a hit.
# growth inhibition values compiled below
Endpoint: growth inhibition (%)

CC(=O)C(C)(C)C
0
[N-]=[N+]=[N-]
6.75
O=c1ccn(C2OC(CO)C(O)C2[Se]c2ccccc2)c(=O)[nH]1 (stereo not drawn)
4
CCCCCCCC(=O)[O][Pb]([CH2]C)([CH2]C)[CH2]C
-7.8
SCc1ccccc1.[Cu+2]
-1.4
Oc1cc(Cl)ccc1Cl
98.2
[C-]#[O+].[C-]#[O+].[C-]#[O+].[CH3][Sn]([c]1ccccc1)[c]1ccccc1.[W].[c-]1[c-][c-][cH-][c-]1
98.2
O=C(Sc1c[nH]c(=O)[nH]c1=O)c1ccc(N(CCCl)CCCl)cc1
29.6
COc1cccc(N2CCNCC2)c1
-5.2
[Fe+2].[c-]1[c-][c-][cH-][c-]1.[c-]1[c-][c-][cH-][c-]1.c1cc[c]([Pb]([c]2ccccc2)[c]2ccccc2)cc1
66.5
O=C(Nc1c(O)[nH]c(=S)[nH]c1=O)c1ccco1
-24.1
O=C1c2ccccc2C(=O)N1N1CC1c1ccccc1 (stereo not drawn)
-8.2
CS(=O)(=O)c1ccc(COP(N)(=O)N(CCCl)CCCl)cc1 (stereo not drawn)
17.1
O=c1[nH]cc(N=Cc2ccccc2F)c(=O)[nH]1.[Cl][Pt][Cl]
20.6
COc1cc2c(cc1O)-c1c(OC)c(O)cc3c1C(C2)N(C)CC3 (stereo not drawn)
-20.6
CC[N+](CC)(CC)CC#CC[N+](CC)(CC)CC
5.65
CC[N+](C)(C)c1ccc(C)c(OC(=O)NC)c1
-4.35
O=C(Nc1ccccc1)c1ccc([As](c2ccc(C(=O)Nc3ccccc3)cc2)c2ccc(C(=O)Nc3ccccc3)cc2)cc1
-8.9
O=c1n(Cc2ccccc2)c2ccccc2n1CC1CS1 (stereo not drawn)
55.5
CC(C)CCC1C(=O)N(C)C(=O)N(C)C1=O
-9
Cc1cccc(OP(=O)(c2ccccc2)c2ccccc2)c1
15.7
O=C1NC(=O)C(O)(Cc2ccccn2)C(=O)N1
9.9
CCCCCCCC(=O)O.[Ni]
-15.1
CCCCS(=O)(=O)Cl
34.5
NCC(O)CSP(=O)(O)O (stereo not drawn)
-10.9
COP(=O)(Oc1ccccc1)Oc1ccccc1
17.6
CCCN(CCC)CCc1ccc(OC2=CCN(C)CC2)cc1
-22.6
CC(=O)OCC1OC(n2ncc3c(N4CC4)ncnc32)C(OC(C)=O)C1OC(C)=O (stereo not drawn)
7.7
O=[N+]([O-])c1ccc(P(=O)(O)O)cc1
-7.5
CC1CN1C(=O)NCCCCCCNC(=O)N1CC1C (stereo not drawn)
-17.7
CC[As](=O)(O)c1ccc(OC)c(I)c1
1.75
ClC1CC2CC1C1CNCC21 (stereo not drawn)
-15.2
F[C](F)(F)[Hg][c]1ccccc1
99.3
CC(C)(C(=O)c1ccccc1)N1CC1
-0.65
CC(=O)Nc1cc([As](=O)(O)O)ccc1O
31.6
CC1OC(O[C@@H]2C=C3CC[C@@H]4[C@H](CC[C@]5(C)[C@@H](c6ccc(=O)oc6)CC[C@]45O)[C@@]3(C)CC2)C(O)C(OC2OC(CO)C(O)C(O)C2O)C1O (stereo partly drawn)
25.7
CCCCN1CCC2(C)c3cc(O)ccc3CC1C2CC (stereo not drawn)
6.8
CCCCCCCCCCCCP(=O)(O)OCC(N)C(=O)O (stereo not drawn)
-0.9
C=Cn1nnc(N)n1
-4.9
O=C(Nc1ccccc1F)C(Cl)(Cl)Cl
6.55
CN(C)C1C(=O)C(C(=O)NP(=O)(NCCCO)N(CCCl)CCCl)=C(O)C2(O)C(=O)C3=C(O)c4c(O)cccc4C(C)(O)C3CC12 (stereo not drawn)
27.6
Cc1ncc(C)[n+]2c(C)csc12
5
Cn1c(O)c(N=NC(N)=S)c(=O)n(C)c1=O
30.6
CC(=O)N(C)C(=O)Oc1cccc2ccccc12
-8.35
O=C(O)CCC(=O)CCl
7
N#CC(C#N)C1CN2CCC1CC2 (stereo not drawn)
1.95
COc1ccc2c(c1OC(C)=O)-c1cc(OC(C)=O)cc3c1C(C2)NCC3 (stereo not drawn)
11.7
COc1cc2c(c(OC)c1O)-c1ccc(OC)c(=O)cc1[C@@H](NC(=O)C(F)(F)F)CC2
14.5
